Numbers sourced from patent US7041681B2.

Entries below carry reported Ki on UniProt:P33535.
State just the number; it will be interpreted in nM.

Study these solved cases before continuing.
[
  {
    "compound": "N#Cc1cccc(C[C@H](N)C(=O)N2CCCC[C@H]2c2nc(-c3ccccc3)c[nH]2)c1",
    "unit": "nM",
    "Ki": 207
  },
  {
    "compound": "CNC(Cc1c(C)cc(OC)cc1C)C(=O)N1Cc2ccccc2CC1c1nc(-c2ccccc2)c[nH]1 (stereo not drawn)",
    "unit": "nM",
    "Ki": 817
  },
  {
    "compound": "CC(=O)c1ccc(C[C@H](N)C(=O)N2Cc3ccccc3C[C@H]2c2nc(-c3ccccc3)c[nH]2)cc1",
    "unit": "nM",
    "Ki": 413
  },
  {
    "compound": "N[C@@H](Cc1ccc(O)cc1)C(=O)N1CCCC[C@H]1c1cccc(-c2ccccc2)c1",
    "unit": "nM",
    "Ki": 541
  },
  {
    "compound": "N[C@@H](Cc1cc(F)c(O)c(F)c1)C(=O)N1Cc2ccccc2C[C@H]1c1nc(-c2ccccc2)c[nH]1",
    "unit": "nM",
    "Ki": 167
  },
  {
    "compound": "Cc1cc(O)cc(C)c1CC(N)C(=O)N1Cc2ccccc2CC1c1nc(-c2ccccc2)c[nH]1 (stereo not drawn)",
    "unit": "nM",
    "Ki": 0.3
  }
]

Hello, please tell me recorded Ki for this one: Cc1cc(C(N)=O)cc(C)c1C[C@H](N)C(=O)N1Cc2ccccc2C[C@H]1c1nc(-c2ccccc2)c[nH]1
1.44

Read off the recorded Ki for CN(C)C(=O)c1ccc(C[C@H](N)C(=O)N2Cc3ccccc3C[C@H]2c2nc(-c3ccccc3)c[nH]2)cc1
900

----------
# test.target: delta opioid receptor (Rattus norvegicus)
# assay.text: Rat Brain Delta Opioid Receptor Binding Assay
# condition.set: rat forebrain membranes, ~4 nM [3H]DPDPE, 25° C., 2.5 h; read-out: δ-opioid binding (Ki)
quantity.name: log10 Ki (log10 of the value in nM)
Log10 applied to Ki; unit prior to transform: nM.

Reference set (6 entries):
[
  {
    "compound": "Cc1cc(O)cc(C)c1C[C@H](N)C(=O)N1Cc2ccccc2C[C@H]1c1nc(-c2ccccc2)c(C)[nH]1 [Cmpd 149]",
    "log10 Ki": -0.10
  },
  {
    "compound": "N[C@@H](Cc1ccc(O)cc1)C(=O)N1CCCC[C@H]1c1nc(-c2ccccc2)no1 [Cmpd 20]",
    "log10 Ki": 4.00
  },
  {
    "compound": "N[C@@H](Cc1ccc(S(N)(=O)=O)cc1)C(=O)N1Cc2ccccc2C[C@H]1c1nc(-c2ccccc2)c[nH]1 [Cmpd 104]",
    "log10 Ki": 2.24
  },
  {
    "compound": "Cc1cc(O)cc(C)c1CC(N)C(=O)N1CCCCC1c1nc(-c2ccccc2)c[nH]1 (centres unmarked) [Cmpd 34]",
    "log10 Ki": 0.27
  },
  {
    "compound": "Cc1cc(C(N)=O)cc(C)c1CC(N)C(=O)N1CCCCC1c1nc(-c2ccccc2)c[nH]1 (centres unmarked) [Cmpd 6]",
    "log10 Ki": 1.14
  },
  {
    "compound": "N[C@@H](Cc1ccc(S(N)(=O)=O)cc1)C(=O)N1CCCC[C@H]1c1nc(-c2ccccc2)c[nH]1 [Cmpd 5]",
    "log10 Ki": 3.79
  }
]

For COc1ccc(CC(N)C(=O)N2Cc3ccccc3CC2c2nc(-c3ccccc3)c(C)[nH]2)cc1 (centres unmarked) [Cmpd 154] , write its log10 Ki.
4.00

Complete the entry with log10 Ki for COc1cc(C)c(CC(N)C(=O)N2Cc3ccccc3CC2c2nc(-c3ccccc3)c[nH]2)c(C)c1 (centres unmarked) [Cmpd 147]
1.63

----------
# test.target: mu opioid receptor (Rattus norvegicus)
# Sequence (P33535 whole entry): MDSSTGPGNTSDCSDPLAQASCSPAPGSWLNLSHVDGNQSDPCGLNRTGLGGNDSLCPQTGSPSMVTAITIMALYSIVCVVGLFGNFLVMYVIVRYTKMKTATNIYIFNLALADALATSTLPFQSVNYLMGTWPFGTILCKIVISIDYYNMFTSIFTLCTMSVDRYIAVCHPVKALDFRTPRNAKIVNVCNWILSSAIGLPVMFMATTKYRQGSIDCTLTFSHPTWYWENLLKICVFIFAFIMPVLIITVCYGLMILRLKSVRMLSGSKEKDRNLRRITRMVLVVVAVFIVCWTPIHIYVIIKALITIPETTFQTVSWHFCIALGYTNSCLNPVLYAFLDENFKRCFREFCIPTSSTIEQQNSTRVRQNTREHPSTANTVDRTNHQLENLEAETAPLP
Entries annotated with measured Ki
Write the answer as a number in nM, unit excluded.

[
  {
    "compound": "CN[C@@H](Cc1c(C)cc(O)cc1C)C(=O)N1CCCC[C@H]1c1nc(-c2ccccc2)c[nH]1 [Cmpd 28]",
    "quantity.name": "Ki",
    "reported.measurement": 0.3
  },
  {
    "compound": "CNC(=O)c1ccc(C[C@H](N)C(=O)N2Cc3ccccc3C[C@H]2c2nc(-c3ccccc3)c[nH]2)cc1 [Cmpd 117]",
    "quantity.name": "Ki",
    "reported.measurement": 23.6
  },
  {
    "compound": "CC(N)(Cc1ccc(O)cc1)C(=O)N1CCCCC1c1nc(-c2ccccc2)c[nH]1 (stereo not shown) [Cmpd 25]",
    "quantity.name": "Ki",
    "reported.measurement": 1.69
  }
]

Proceeding to the next compound to report its Ki.
Fill in Ki for CN(C)C(=O)c1ccc(C[C@H](N)C(=O)N2CCCC[C@H]2c2nc(-c3ccccc3)c[nH]2)cc1 [Cmpd 4] tested with mu opioid receptor (Rattus norvegicus).
135

----------
Recorded pKi values for a group of molecules are listed next.
# test.target: delta opioid receptor (Rattus norvegicus, UniProt P33533)
# Sequence (P33533 whole entry): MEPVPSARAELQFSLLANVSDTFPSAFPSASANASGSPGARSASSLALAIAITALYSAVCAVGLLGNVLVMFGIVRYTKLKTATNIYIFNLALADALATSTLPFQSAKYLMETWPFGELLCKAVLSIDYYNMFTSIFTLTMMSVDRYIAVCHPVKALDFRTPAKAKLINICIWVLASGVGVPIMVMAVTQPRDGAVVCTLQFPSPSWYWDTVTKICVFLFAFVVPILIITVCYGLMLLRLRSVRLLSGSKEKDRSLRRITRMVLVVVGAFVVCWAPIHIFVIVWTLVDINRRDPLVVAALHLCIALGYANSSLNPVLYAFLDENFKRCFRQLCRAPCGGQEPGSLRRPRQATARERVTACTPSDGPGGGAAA
# assay.text: Rat Brain Delta Opioid Receptor Binding Assay
# condition.set: rat forebrain membranes, ~4 nM [3H]DPDPE, 25° C., 2.5 h; read-out: δ-opioid binding (Ki)
Please treat pKi as minus the base-10 logarithm of the molar concentration.

[
  {
    "molecule": "NC(=O)c1cccc(CC(N)C(=O)N2CCCCC2c2nc(-c3ccccc3)c[nH]2)c1 (centres unmarked) [Cmpd 7]",
    "pKi": 5.22
  },
  {
    "molecule": "N[C@@H](Cc1ccc(C(=O)O)cc1)C(=O)N1CCCC[C@H]1c1nc(-c2ccccc2)c[nH]1 [Cmpd 9]",
    "pKi": 6.22
  },
  {
    "molecule": "CNC(Cc1ccc(O)cc1)C(=O)N1Cc2ccccc2CC1c1nc(-c2ccccc2)c[nH]1 (centres unmarked) [Cmpd 145]",
    "pKi": 8.93
  },
  {
    "molecule": "CN[C@@H](Cc1c(C)cc(O)cc1C)C(=O)N1CCCC[C@H]1c1nc(-c2ccccc2)c[nH]1 [Cmpd 28]",
    "pKi": 7.67
  }
]

// Input: CS(=O)(=O)Nc1ccc(CC(N)C(=O)N2Cc3ccccc3CC2c2nc(-c3ccccc3)c[nH]2)cc1 (centres unmarked) [Cmpd 114] . Output its pKi only.
6.47

Provide one value: measured pKi of NC(Cc1ccc(C(=O)NCCO)cc1)C(=O)N1CCCCC1c1nc(-c2ccccc2)c[nH]1 (centres unmarked) [Cmpd 14]
5.29

Retrieve pKi measured for NC(=O)c1ccc(C[C@H](N)C(=O)N2CCCC[C@H]2c2nc(-c3ccccc3)c[nH]2)cc1 [Cmpd 15] and print it.
7.19

Return pKi (reported value) for this molecule: NC(=O)c1ccc(CC(N)C(=O)N2Cc3ccccc3CC2c2nc(-c3ccccc3)c[nH]2)cc1 (centres unmarked) [Cmpd 115]
8.89

----------
# test.target: UniProt:P33535
pKi: −log10 of the molar value.
We use 7 as the dividing line for pKi: on or above the line is 1.0, below is 0.0.

Worked set:
[
  {
    "compound": "CCN[C@@H](Cc1ccc(O)cc1)C(=O)N1Cc2ccccc2C[C@H]1c1nc(-c2ccccc2)c[nH]1",
    "category": 0.0
  },
  {
    "compound": "Cc1cc(O)cc(C)c1CC(N)C(=O)N1CCCCC1c1nc(-c2ccccc2)c[nH]1 (stereo not drawn)",
    "category": 1.0
  },
  {
    "compound": "CS(=O)(=O)Nc1ccc(CC(N)C(=O)N2Cc3ccccc3CC2c2nc(-c3ccccc3)c[nH]2)cc1 (stereo not drawn)",
    "category": 0.0
  },
  {
    "compound": "Cc1cc(OC(=O)C(C)(C)C)cc(C)c1C[C@H](N)C(=O)N1Cc2ccccc2C[C@H]1c1nc(-c2ccccc2)c[nH]1",
    "category": 1.0
  }
]

hey, is pKi for this one >= 7? Cc1[nH]c([C@@H]2Cc3ccccc3CN2C(=O)[C@@H](N)Cc2ccc(C(N)=O)cc2)nc1-c1ccccc1
1.0

Hello, I need to know if COc1cc(C)c(C[C@H](N)C(=O)N2CCCC[C@H]2c2nc(-c3ccccc3)c[nH]2)c(C)c1 has measured pKi not below 7. Thanks!
1.0

For this compound, is measured pKi 7 or higher? NC(=O)c1ccc(C[C@H](N)C(=O)N2CCCC[C@H]2c2nc(-c3ccccc3)c[nH]2)cc1
1.0

Say whether N[C@@H](Cc1ccc(S(N)(=O)=O)cc1)C(=O)N1CCCC[C@H]1c1nc(-c2ccccc2)c[nH]1 shows pKi of 7 or more.
1.0

I'd appreciate it if you could say whether CN[C@@H](Cc1ccc(O)cc1)C(=O)N1Cc2ccccc2C[C@H]1c1nc(-c2ccccc2)c(C)[nH]1 has pKi at least equal to 7.
1.0
